Where do the numbers come from? From patent US8987314B2.

target: hepatic lipase (HL) (Homo sapiens (Human), UniProt P11150); assay: HL assay: hepatic lipase activity with fluorescent substrate A10070 in DMPG vesicles; format: biochemical
Sequence (P11150 23-499, species assumed): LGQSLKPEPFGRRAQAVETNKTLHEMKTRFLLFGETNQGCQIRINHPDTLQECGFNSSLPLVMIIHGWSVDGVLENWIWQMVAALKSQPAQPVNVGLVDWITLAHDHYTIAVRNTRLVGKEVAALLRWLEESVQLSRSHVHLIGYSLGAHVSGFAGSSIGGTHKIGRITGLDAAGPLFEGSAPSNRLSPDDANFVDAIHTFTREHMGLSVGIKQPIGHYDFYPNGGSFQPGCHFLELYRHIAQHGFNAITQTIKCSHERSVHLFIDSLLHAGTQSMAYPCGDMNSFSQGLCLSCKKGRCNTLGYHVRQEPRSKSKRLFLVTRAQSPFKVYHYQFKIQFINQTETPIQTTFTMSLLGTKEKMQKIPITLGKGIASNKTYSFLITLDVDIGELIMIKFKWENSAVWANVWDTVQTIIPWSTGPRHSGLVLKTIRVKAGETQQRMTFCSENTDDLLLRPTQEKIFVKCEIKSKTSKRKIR
Measurement label: log10 IC50 (log10 of the value in nM)
Short version: log10 scale, IC50, nM.

# count of solved cases: 10
[
  {
    "Compound": "Cn1ccc(-c2ccc3nc(C(C(=O)NCCS(N)(=O)=O)S(=O)(=O)Cc4ccc(OC(F)(F)F)cc4)sc3c2)cc1=O (stereo not drawn) [Example B368]",
    "Target entity": "hepatic lipase (HL) (Homo sapiens (Human), UniProt P11150)",
    "log10 IC50": 3.20
  },
  {
    "Compound": "COCCNC(=O)c1ccc(-c2ccc3nc(C(C(=O)NCCS(N)(=O)=O)S(=O)(=O)Cc4ccc(Cl)c(Cl)c4)sc3c2)cc1 (stereo not drawn) [Example B292]",
    "Target entity": "hepatic lipase (HL) (Homo sapiens (Human), UniProt P11150)",
    "log10 IC50": 2.05
  },
  {
    "Compound": "CC1(O)CCN(C(=O)c2cccc(-c3ccc4nc(C(C(=O)NCCS(N)(=O)=O)S(=O)(=O)CCC(F)(F)F)sc4c3)c2)CC1 (stereo not drawn) [Example B341]",
    "Target entity": "hepatic lipase (HL) (Homo sapiens (Human), UniProt P11150)",
    "log10 IC50": 2.05
  },
  {
    "Compound": "CS(=O)(=O)C(C(=O)NCCS(N)(=O)=O)c1nc2cc(C(=O)N3CC(F)(F)C3)ccc2s1 (stereo not drawn) [Example B393]",
    "Target entity": "hepatic lipase (HL) (Homo sapiens (Human), UniProt P11150)",
    "log10 IC50": 3.76
  },
  {
    "Compound": "NS(=O)(=O)CCNC(=O)C(c1nc2ccc(-c3cnn(CCN4CCOCC4)c3)cc2s1)S(=O)(=O)Cc1ccc(C(F)(F)F)cc1 (stereo not drawn) [Example B73]",
    "Target entity": "hepatic lipase (HL) (Homo sapiens (Human), UniProt P11150)",
    "log10 IC50": 4.20
  },
  {
    "Compound": "NS(=O)(=O)CCNC(=O)C(c1nc2ccc(-c3ccc(C(=O)N4CC(F)(F)C4)cc3)cc2s1)S(=O)(=O)Cc1cccc(C(F)(F)F)c1 (stereo not drawn) [Example B359]",
    "Target entity": "hepatic lipase (HL) (Homo sapiens (Human), UniProt P11150)",
    "log10 IC50": 1.67
  },
  {
    "Compound": "Cc1nnc(CNC(=O)C(c2nc3cc(F)c(-c4ccccc4)cc3s2)S(=O)(=O)CC(C)C)o1 (stereo not drawn) [Example B152]",
    "Target entity": "hepatic lipase (HL) (Homo sapiens (Human), UniProt P11150)",
    "log10 IC50": 1.59
  },
  {
    "Compound": "NS(=O)(=O)CCNC(=O)C(c1nc2ccc(C(=O)NCCc3c[nH]cn3)cc2s1)S(=O)(=O)CCC(F)(F)F (stereo not drawn) [Example B198]",
    "Target entity": "hepatic lipase (HL) (Homo sapiens (Human), UniProt P11150)",
    "log10 IC50": 3.59
  },
  {
    "Compound": "CS(=O)(=O)C(C(=O)NCCS(N)(=O)=O)c1nc2ccc(-c3ccc(C(=O)NCC(F)(F)F)cc3)cc2s1 (stereo not drawn) [Example B41]",
    "Target entity": "hepatic lipase (HL) (Homo sapiens (Human), UniProt P11150)",
    "log10 IC50": 1.23
  },
  {
    "Compound": "COc1cc(-c2ccc3nc(C(C(=O)NCCS(N)(=O)=O)S(C)(=O)=O)sc3c2)c(F)cn1 (stereo not drawn) [Example B142]",
    "Target entity": "hepatic lipase (HL) (Homo sapiens (Human), UniProt P11150)",
    "log10 IC50": 1.89
  }
]

Hello, I would appreciate it if you could give log10 IC50 for each entry below.
1. COCCNC(=O)c1ccc(-c2ccc3nc(C(C(=O)NCCS(N)(=O)=O)S(=O)(=O)Cc4cccc(C#N)c4)sc3c2)cc1 (stereo not drawn) [Example B115]
2. COCc1ccc(-c2ccc3sc(C(C(=O)NCCS(N)(=O)=O)S(C)(=O)=O)nc3c2)cc1 (stereo not drawn) [Example B378]

Key:
2.03
0.83
